Measured IC50, listed per entry.
experimentalSystem: KRAS G13D (Homo sapiens, UniProt P01116+P62937, G13D)
Sequence (P01116 1-169 isoform P01116-2 G13D limits assumed): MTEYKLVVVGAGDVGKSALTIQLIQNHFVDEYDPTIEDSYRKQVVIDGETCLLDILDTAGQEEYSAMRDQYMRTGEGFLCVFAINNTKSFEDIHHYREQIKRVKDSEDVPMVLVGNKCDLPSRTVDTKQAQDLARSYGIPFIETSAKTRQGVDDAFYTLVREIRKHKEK
Sequence (P62937 whole entry): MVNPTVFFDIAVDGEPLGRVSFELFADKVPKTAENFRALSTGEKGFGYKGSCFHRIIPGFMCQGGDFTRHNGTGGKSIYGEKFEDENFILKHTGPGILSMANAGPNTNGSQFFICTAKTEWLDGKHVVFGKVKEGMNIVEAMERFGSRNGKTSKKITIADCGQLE
procedureDetails: Disruption of BRAF RBD interaction with Ras (FRET / MOA assay, with Cyclophilin A)
Format: biochemical
condition: KRAS G13D; read-out: KRAS G13D FRET data IC50

Before answering, review these 3 worked examples.
| compound | experimentalSystem | reading |
| --- | --- | --- |
| CCn1c(-c2cccnc2[C@H](C)OC)c2c3cc(ccc31)-c1cc(O)cc(c1)C[C@H](NC(=O)[C@H](C(C)C)N(C)C(=O)[C@H]1CCN(C(=O)CNC)C1)C(=O)N1CCC[C@H](N1)C(=O)OCC(C)(C)C2 (atropisomer, axis not shown) [Example A120] | KRAS G13D (Homo sapiens, UniProt P01116+P62937, G13D) | 100 to 1000 nM |
| CCn1c(-c2cc(N3CCN(C)CC3)cnc2[C@H](C)OC)c2c3cc(ccc31)-c1csc(n1)C[C@H](NC(=O)[C@H](C1CCCC1)N(C)C(=O)N1CCC1)C(=O)N1CCC[C@H](N1)C(=O)OCC(C)(C)C2 (atropisomer, axis not shown) [Example A529] | KRAS G13D (Homo sapiens, UniProt P01116+P62937, G13D) | 10 to 100 nM |
| C=CC(=O)N1CCC(C(=O)N(C)C(C(=O)NC2Cc3nc(cs3)-c3ccc4c(c3)c(c(-c3cccnc3C(C)OC)n4CC)CC(C)(C)COC(=O)C3CCCN(N3)C2=O)C(C)C)C1 (centres unmarked) [Example A279] | KRAS G13D (Homo sapiens, UniProt P01116+P62937, G13D) | > 10000 nM |

Request body: readout IC50, system KRAS G13D (Homo sapiens, UniProt P01116+P62937, G13D), query CCn1c(-c2cccnc2[C@H](C)OC)c2c3cc(ccc31)-c1csc(n1)C[C@H](NC(=O)[C@H](C(C)C)N(C)C(=O)N1CC(CO)C1)C(=O)N1CCC[C@H](N1)C(=O)OCC(C)(C)C2 (atropisomer, axis not shown) [Example A356] . Return the value.
100 to 1000 nM

Request body: readout IC50, system KRAS G13D (Homo sapiens, UniProt P01116+P62937, G13D), query C=CS(=O)(=O)N1CC[C@H](C(=O)N(C)[C@H](C(=O)N[C@H]2Cc3nc(cs3)-c3ccc4c(c3)c(c(-c3cncnc3)n4CC)CC(C)(C)COC(=O)[C@@H]3CCCN(N3)C2=O)C(C)C)C1 [Example A170] . Return the value.
> 10000 nM

Request body: readout IC50, system KRAS G13D (Homo sapiens, UniProt P01116+P62937, G13D), query CCn1c(-c2cccnc2[C@H](C)OC)c2c3cc(ccc31)-c1cc(O)cc(c1)C[C@H](NC(=O)[C@H](C(C)C)N(C)C(=O)[C@H]1CCN(C(=O)[C@@H]3CCCN3C)C1)C(=O)N1CCC[C@H](N1)C(=O)OCC(C)(C)C2 [Example A385] . Return the value.
10 to 100 nM

Request body: readout IC50, system KRAS G13D (Homo sapiens, UniProt P01116+P62937, G13D), query CCn1c(-c2cccnc2[C@H](C)OC)c2c3cc(ccc31)-c1cccc(c1)C[C@H](NC(=O)[C@H](C(C)C)N(C)C(=O)[C@H]1CCN(C(C)=O)C1)C(=O)N1CCC[C@H](N1)C(=O)OCC(C)(C)C2 [Example A60] . Return the value.
> 10000 nM

Request body: readout IC50, system KRAS G13D (Homo sapiens, UniProt P01116+P62937, G13D), query CCn1c(-c2cnccc2COC)c2c3cc(ccc31)-c1cc(O)cc(c1)C[C@H](NC(=O)[C@@H](OC(=O)N(C)C)C(C)C)C(=O)N1CCC[C@H](N1)C(=O)OCC(C)(C)C2 [Example A53] . Return the value.
1000 to 10000 nM

Request body: readout IC50, system KRAS G13D (Homo sapiens, UniProt P01116+P62937, G13D), query CCn1c(-c2cccnc2[C@H](C)OC)c2c3cc(ccc31)-c1cc(O)cc(c1)C[C@H](NC(=O)[C@H](C(C)C)N(C)C(=O)N1CC(N(C)C)C1)C(=O)N1CCC[C@H](N1)C(=O)OCC(C)(C)C2 [Example A171] . Return the value.
100 to 1000 nM

Request body: readout IC50, system KRAS G13D (Homo sapiens, UniProt P01116+P62937, G13D), query CCn1c(-c2cccnc2[C@H](C)OC)c2c3cc(ccc31)-c1csc(n1)C[C@H](NC(=O)[C@H](C(C)C)N(C)C(=O)N(C)C1CCC1)C(=O)N1CCC[C@H](N1)C(=O)OCC(C)(C)C2 (atropisomer, axis not shown) [Example A349] . Return the value.
10 to 100 nM

Request body: readout IC50, system KRAS G13D (Homo sapiens, UniProt P01116+P62937, G13D), query CCn1c(-c2cccnc2[C@H](C)OC)c2c3cc(ccc31)-c1cc(O)cc(c1)C[C@H](NC(=O)[C@H](C(C)C)N(C)C(=O)C1CC3CC1CN3)C(=O)N1CCC[C@H](N1)C(=O)OCC(C)(C)C2 (some centres unmarked) [Example A133] . Return the value.
10 to 100 nM

Request body: readout IC50, system KRAS G13D (Homo sapiens, UniProt P01116+P62937, G13D), query CCn1c(-c2cccnc2[C@H](C)OC)c2c3cc(ccc31)-c1csc(n1)C[C@H](NC(=O)[C@H](CC1CC1)N(C)C(=O)N1CC(OC)C1)C(=O)N1CCC[C@H](N1)C(=O)OCC(C)(C)C2 (atropisomer, axis not shown) [Example A578] . Return the value.
10 to 100 nM

Request body: readout IC50, system KRAS G13D (Homo sapiens, UniProt P01116+P62937, G13D), query CCn1c(-c2cccnc2[C@H](C)OC)c2c3cc(ccc31)-c1csc(n1)C[C@H](NC(=O)[C@H](C(C)C)N(C)C(=O)N1CC(C#N)(N(C)C)C1)C(=O)N1CCC[C@H](N1)C(=O)OCC(C)(C)C2 [Example A452] . Return the value.
100 to 1000 nM

Request body: readout IC50, system KRAS G13D (Homo sapiens, UniProt P01116+P62937, G13D), query CCn1c(-c2cccnc2[C@H](C)OC)c2c3cc(ccc31)-c1csc(n1)C[C@H](NC(=O)[C@H](C(C)C)N(C)C(=O)N1CC[C@]13CCCN(C)C3)C(=O)N1CCC[C@H](N1)C(=O)OCC(C)(C)C2 [Example A442] . Return the value.
100 to 1000 nM

Request body: readout IC50, system KRAS G13D (Homo sapiens, UniProt P01116+P62937, G13D), query CCn1c(-c2cccnc2[C@H](C)OC)c2c3cc(ccc31)-c1csc(n1)C[C@H](NC(=O)[C@H](C(C)C)N(C)C(=O)N1CCC[C@@H](N(C)C)C1)C(=O)N1CCC[C@H](N1)C(=O)OCC(C)(C)C2 (atropisomer, axis not shown) [Example A531] . Return the value.
100 to 1000 nM

Request body: readout IC50, system KRAS G13D (Homo sapiens, UniProt P01116+P62937, G13D), query CCn1c(-c2cccnc2[C@@H]2CCCO2)c2c3cc(ccc31)-c1csc(n1)C[C@H](NC(=O)[C@H](C(C)C)N(C)C(=O)N1CC(N(C)C)C1)C(=O)N1CCC[C@H](N1)C(=O)OCC(C)(C)C2 (atropisomer, axis not shown) [Example A327] . Return the value.
> 10000 nM

Request body: readout IC50, system KRAS G13D (Homo sapiens, UniProt P01116+P62937, G13D), query CCn1c(-c2cccnc2COC)c2c3cc(ccc31)-c1cc(O)cc(c1)C[C@H](NC(=O)[C@@H](C(C)C)N(C)C(=O)[C@H]1CCN(C(=O)C#CC(C)N3CCOCC3)C1)C(=O)N1CCC[C@H](N1)C(=O)OCC(C)(C)C2 (some centres unmarked) [Example A200] . Return the value.
> 10000 nM

====

experimentalSystem: KRAS G12C (Homo sapiens, UniProt P01116+P62937, G12C)
Sequence (P01116 1-169 isoform P01116-2 G12C limits assumed): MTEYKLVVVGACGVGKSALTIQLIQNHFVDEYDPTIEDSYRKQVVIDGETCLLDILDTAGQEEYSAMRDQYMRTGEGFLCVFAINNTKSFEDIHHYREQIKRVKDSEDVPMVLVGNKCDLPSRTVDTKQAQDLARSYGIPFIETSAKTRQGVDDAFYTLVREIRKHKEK
Sequence (P62937 whole entry): as the sequence (P62937 whole entry) above
procedureDetails: Ras-Raf disruption / FRET / MOA assay (BRAF RBD)
Format: biochemical
condition: Ras-Raf disruption, with Cyclophilin A; read-out: KRAS G12C FRET data IC50
assayEndpoint: IC50

Before answering, review these 8 worked examples.
| compound | IC50 |
| --- | --- |
| CCn1c(-c2cccnc2[C@H](C)OC)c2c3cc(ccc31)-c1cc(O)cc(c1)C[C@H](NC(=O)[C@H](C1CCCC1)N1CC[C@]3(CCN(C(=O)[C@@H]4N[C@@H]4C4CC4)C3)C1=O)C(=O)N1CCC[C@H](N1)C(=O)OCC(C)(C)C2 | 0.01 to 0.1 µM |
| CCn1c(-c2cnccc2COC)c2c3cc(ccc31)-c1cccc(c1)C[C@H](NC(=O)[C@H](C(C)C)N(C)C(=O)CCN=C=NCCOC)C(=O)N1CCC[C@H](N1)C(=O)OCC(C)(C)C2 | 0.01 to 0.1 µM |
| CCn1c(-c2cccnc2[C@H](C)OC)c2c3cc(ccc31)-c1cc(O)cc(c1)C[C@H](NC(=O)[C@H](C(C)C)N(C)C(=O)N1CCN(C(=O)[C@H]3CN3)CC1=O)C(=O)N1CCC[C@H](N1)C(=O)OCC(C)(C)C2 (atropisomer, axis not shown) | < 0.01 µM |
| CCn1c(-c2cccnc2[C@H](C)OC)c2c3cc(ccc31)-c1csc(n1)C[C@H](NC(=O)[C@H](C(C)C)N(C)C(=O)N1CC(CN(C)C(=O)[C@@H]3CN3)C1)C(=O)N1CCC[C@H](N1)C(=O)OCC(C)(C)C2 (atropisomer, axis not shown) | 0.01 to 0.1 µM |
| CCn1c(-c2cccnc2[C@H](C)OC)c2c3cc(ccc31)-c1cc(O)cc(c1)C[C@H](NC(=O)[C@H](C(C)C)N(C)C(=O)N1CC[C@@H](N(C)C(=O)[C@@H]3CN3)C1)C(=O)N1CCC[C@H](N1)C(=O)OCC(C)(C)C2 (atropisomer, axis not shown) | 0.01 to 0.1 µM |
| CCn1c(-c2cccnc2[C@H](C)OC)c2c3cc(ccc31)-c1cc(O)cc(c1)C[C@H](NC(=O)[C@H](C(C)C)N(C)C(=O)C1CC3(C1)CN(C(=O)[C@H]1CN1)C3)C(=O)N1CCC[C@H](N1)C(=O)OCC(C)(C)C2 | 0.01 to 0.1 µM |
| CCn1c(-c2cccnc2[C@H](C)OC)c2c3cc(ccc31)-c1cc(O)cc(c1)C[C@H](NC(=O)[C@H](C(C)C)N(C)C(=O)CN(C)C(=O)[C@H]1C[C@@H]3N[C@@H]3C1)C(=O)N1CCC[C@H](N1)C(=O)OCC(C)(C)C2 (atropisomer, axis not shown) | 0.01 to 0.1 µM |
| CCOC(=O)[C@H]1O[C@@H]1C(=O)N1CC[C@H](C(=O)N(C)[C@H](C(=O)N[C@H]2Cc3cc(O)cc(c3)-c3ccc4c(c3)c(c(-c3cccnc3[C@H](C)OC)n4CC)CC(C)(C)COC(=O)[C@@H]3CCCN(N3)C2=O)C(C)C)C1 | < 0.01 µM |

Here's the next entry for you.
Can you share its IC50? I mean this compound: CCn1c(-c2cccnc2[C@H](C)OC)c2c3cc(ccc31)-c1cc(O)cc(c1)C[C@H](NC(=O)[C@H](C(C)C)N(C)C(=O)C1CCN(S(=O)(=O)[C@H]3CN3C)CC1)C(=O)N1CCC[C@H](N1)C(=O)OCC(C)(C)C2 (single isomer, unassigned)
0.1 to 1 µM
